So I've got a bunch of variants here, and I need their abundance fitness values.
B1: Zinc finger homeobox protein 3, residues 2244 to 2299; numbered along this chain, Q15911 (parent)
chain: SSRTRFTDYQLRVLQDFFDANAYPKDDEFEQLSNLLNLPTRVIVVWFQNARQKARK

Variants of: B1
PROCEDURE SUMMARY: abundance fitness (aPCA) (normalised: wild type 0, dead -1); higher = more abundant; growth selection in yeast, the domain comes from the species named
RUN PARAMETERS: Homo sapiens
Output spec: single numeric token, no unit.

Consider the variant shown here: P39D What is its recorded abundance fitness?
0.196

Also, Q15H please.
-0.036

Then this variant: E28N
-0.39

Then what about the variant L11C ?
-0.743

Same question, R12H this time
0.051

Repeat with D16V
-0.344

Let us now turn to R12W
-0.504

Same again, this time with D26L
-0.307

Moving on to the next variant: S2R
-0.299

Same question for R5Y please.
0.344

Then this variant: D16T
-0.114

Would you kindly repeat that for E28S ?
-0.295

Param item: A22Y
-0.196

Try the variant Q10M
-0.216

Queued: E30S
-0.135

Now the variant Y23E
0.139

Item: R12T
-0.136

Field entry: D19C
-0.036

Next entry: N34Q
-0.208

Also L14D , if possible.
-0.825

One more variant: S1C
0.079

How about F29M ?
-0.271
